pKi: −log10 of the molar value.
Record: pKi reported on hEP2 (Homo sapiens, UniProt P43116).
Sequence (P43116 whole entry): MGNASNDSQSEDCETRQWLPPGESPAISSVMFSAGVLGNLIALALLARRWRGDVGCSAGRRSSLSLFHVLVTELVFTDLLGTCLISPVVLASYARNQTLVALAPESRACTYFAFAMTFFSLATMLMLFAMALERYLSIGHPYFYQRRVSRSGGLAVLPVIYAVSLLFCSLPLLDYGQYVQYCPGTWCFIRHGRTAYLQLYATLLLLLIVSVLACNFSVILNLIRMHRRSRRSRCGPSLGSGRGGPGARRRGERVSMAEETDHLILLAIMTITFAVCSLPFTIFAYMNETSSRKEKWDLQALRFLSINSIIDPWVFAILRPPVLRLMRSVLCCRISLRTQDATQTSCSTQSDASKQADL

molecule | system.under.test | pKi
Cc1cccc(OC[C@@H]2[C@@H](C/C=C\CCCC(=O)O)[C@H](Cl)C[C@H]2O)c1 | hEP2 (Homo sapiens, UniProt P43116) | 6.81
CC(=O)OCc1cc(Cl)cc(OC[C@@H]2[C@@H](C/C=C\CCCC(=O)O)[C@H](Cl)C[C@H]2O)c1 | hEP2 (Homo sapiens, UniProt P43116) | 7.19
Cc1cc(C)cc(OC[C@@H]2[C@@H](C/C=C\CCCC(=O)O)[C@H](Cl)C[C@H]2O)c1 | hEP2 (Homo sapiens, UniProt P43116) | 7.51
CC(C)C(O)c1cccc(OC[C@@H]2[C@@H](C/C=C\CCCC(=O)O)[C@H](Cl)C[C@H]2O)c1 (stereo partly shown) | hEP2 (Homo sapiens, UniProt P43116) | 6.11
O=C(O)CCC/C=C\C[C@@H]1[C@@H](COc2cccc(Cl)c2)[C@H](O)C[C@H]1Cl | hEP2 (Homo sapiens, UniProt P43116) | 7.37
O=C(O)CCC/C=C\C[C@@H]1[C@@H](COc2ccccc2Cl)[C@H](O)C[C@H]1Cl | hEP2 (Homo sapiens, UniProt P43116) | 6.52
CC(C)c1cccc(OC[C@@H]2[C@@H](C/C=C\CCCC(=O)O)[C@H](Cl)C[C@H]2O)c1 | hEP2 (Homo sapiens, UniProt P43116) | 6.82

* * *

- system.under.test: hEP2 (Homo sapiens, UniProt P43116)
- assay: FLIPR calcium signal, hEP2
- Assay type: cell-based
- Design: expressed in transfected cells; host or cells: HEK-293(EBNA)
- measurement.context: HEK-293(EBNA) cells expressing hEP2/Gqs5
Lab note - cut at 0.5 µM for EC50: criterion met if strictly below, criterion not met if not.

compound | system.under.test | category
O=C(O)CCC/C=C\C[C@@H]1[C@@H](COc2cccc(C(O)Cc3ccccc3)c2)[C@H](O)C[C@H]1Cl (stereo partly drawn) [Example 53] | hEP2 (Homo sapiens, UniProt P43116) | criterion not met
O=C(O)CCC/C=C\C[C@@H]1[C@@H](COc2cc(C(F)(F)F)cc(Cl)c2F)[C@H](O)C[C@H]1Cl [Example 41] | hEP2 (Homo sapiens, UniProt P43116) | criterion met
CCCCCC(O)c1cccc(OC[C@@H]2[C@@H](C/C=C\CCCC(=O)O)[C@H](Cl)C[C@H]2O)c1 (stereo partly drawn) [Example 50] | hEP2 (Homo sapiens, UniProt P43116) | criterion met
O=C(O)CCCCCC[C@@H]1[C@@H](COc2ccc3ccccc3c2)[C@H](O)C[C@H]1Cl [Example 18] | hEP2 (Homo sapiens, UniProt P43116) | criterion met
CC(C)c1cccc(OC[C@@H]2[C@@H](C/C=C\CCCC(=O)O)[C@H](Cl)C[C@H]2O)c1 [Example 26] | hEP2 (Homo sapiens, UniProt P43116) | criterion met
O=Cc1ccc(OC[C@@H]2[C@@H](C/C=C\CCCC(=O)O)[C@H](Cl)C[C@H]2O)cc1 [Example 42] | hEP2 (Homo sapiens, UniProt P43116) | criterion not met

* * *

- system.under.test: UniProt P43116
- assay: FLIPR calcium signal, hEP2
- Type: cell-based
- Parameters: expressed in transfected cells; host or cells: HEK-293(EBNA)
- measurement.context: HEK-293(EBNA) cells expressing hEP2/Gqs5
pEC50: −log10 of the molar value.
Use 7 as the dividing line for pEC50, with the line itself on the criterion met side and lower values as criterion not met.

molecule | category
Cc1cc(OC[C@@H]2[C@@H](C/C=C\CCCC(=O)O)[C@H](Cl)C[C@H]2O)cc(C)c1CO [Example 56] | criterion met
Cc1cc(OC[C@@H]2[C@@H](C/C=C\CCCC(=O)O)[C@H](Cl)C[C@H]2O)cc(C)c1C [Example 38] | criterion met
O=C(O)CCC/C=C\C[C@@H]1[C@@H](COc2ccccc2Cl)[C@H](O)C[C@H]1Cl [Example 21] | criterion met
COc1cccc(OC[C@@H]2[C@@H](C/C=C\CCCC(=O)O)[C@H](Cl)C[C@H]2O)c1 [Example 28] | criterion not met
O=C(O)CCC/C=C\C[C@@H]1[C@@H](COc2ccccc2CCO)[C@H](O)C[C@H]1Cl [Example 61] | criterion not met
